Every entry's value here was drawn from PubChem BioAssay AID1159580.

Assay: chemical genetic growth profiling, strain panel (AID 1159580);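 further: tested at 20 µM; growth read once vehicle control cultures reached saturation at 30 °C; 1 = growth at the plate median or of vehicle wells; lower values mean less growth of the strain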
Conditions: S. cerevisiae deletion strains, growth OD, locus YGL227W, strain vid30, active compounds read low
Where a name gives a salt, the structure may show the parent alone. About 2,000 (36%) of roughly 5,500 compounds were called active. Not shown: some 18% with an inconclusive outcome. The list shows a part of the results. Where a SMILES comes first, the peptide text is derived from it. The star is where a group is joined. Tfa = O=C(C(F)(F)F)*
experimental_endpoint: normalized growth
Please respond with just the number, no unit label.

Name the reported normalized growth value associated with the compound Cc1cccc(Nc2ccccc2C(=O)O)c1C
0.917

Which value of normalized growth has been reported for CCN(CC)CCOC(=O)c1ccc(N)cc1 in the records?
0.984

# get_value(readout='normalized growth', item= CC(C)C(C)/C=C/C(C)[C@H]1CCC2C3=CCC4CC(=O)CC[C@]4(C)C3CC[C@@]21C (stereo partly drawn) )
1

normalized growth for C=C1CCC2C(CC2(C)C)C(=C)CC/C1=N\O (stereo not drawn) ?
1

Give the measured normalized growth of CN1C(C(=O)Nc2ccccn2)=C(O)c2ccccc2S1(=O)=O .
0.964

normalized growth for Cc1ccc(Cl)c(Nc2ccccc2C(=O)O)c1Cl ?
0.906

More entries:
What measured normalized growth goes with CCCCC(=O)Oc1ccccc1C(=O)O ?
0.965

Could you tell me which normalized growth is on file for CCCCOC(=O)c1ccccc1C(=O)OCCCC ?
0.984

Data request, read-out normalized growth, for CC(=O)OC1CCC2(C)C(=CC=C3C2CCC2(C)C3CCC2C(C)/C=C/C(C)C(C)C)C1(C)C (stereo not drawn)
1.03

Data request, read-out normalized growth, for CCCCN(CCCC)CCCOC(=O)c1ccc(N)cc1
0.983

Return reported normalized growth; argument: NS(=O)(=O)c1cc2c(cc1Cl)NC(C(Cl)Cl)NS2(=O)=O (stereo not drawn)
0.98

Recorded normalized growth for CC(C)C(NC(=O)C(Cc1ccc(O)cc1)NC(=O)C(NC(=O)C(F)(F)F)C(C)C)C(=O)O (stereo not drawn) (Tfa-Val-Tyr-Val-OH; configuration not given here) , please?
0.988

// returns reported normalized growth for input C=C1CCC2C(CC2(C)C)C(=O)CCC1O (stereo not drawn)
0.985

Param item = CC(=O)Oc1c(C)cccc1C(=O)O ; retrieve measured normalized growth.
1.01

Need normalized growth, item O=C(C1CCCCC1)N1CC(=O)N2CCc3ccccc3C2C1 (stereo not drawn)
1.01

Need normalized growth of CCCCCCOc1ccccc1C(N)=O , thanks.
0.947

Could you tell me which normalized growth is on file for NC(=O)c1cccc(N)c1 ?
0.966

Could you share which normalized growth value was measured for NC(CO)C(=O)NNCc1ccc(O)c(O)c1O (stereo not drawn) ?
1.01

Returns the measured normalized growth for the input compound. Input: CCCCCCCCCCCCCCCC(=O)OC1C(SC)OC(C(NC(=O)C2CC(CCC)CN2C)C(C)Cl)C(O)C1O (stereo not drawn)
0.963

---

Assay: chemical genetic growth profiling, strain panel (AID 1159580);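 further: tested at 20 µM; growth read once vehicle control cultures reached saturation at 30 °C; 1 = growth at the plate median or of vehicle wells; lower values mean less growth of the strain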
Conditions: S. cerevisiae deletion strains, growth OD, locus YAL021C, strain ccr4, active compounds read low
Out of some 5,500 compounds screened, about 2,000 (36%) were called active. Another 18% or so got no clear call; they are omitted. Some of the results follow.
experimental_endpoint: normalized growth
Respond using a number only.

Need normalized growth, item CC(C)C(=O)Nc1ccc([N+](=O)[O-])c(C(F)(F)F)c1
1.03

So what's the measured normalized growth for this one? O=C(O)c1ccccc1-c1c2cc(Br)c(=O)cc-2oc2[c]([Hg])c(O)c(Br)cc12
1.01

Entry CC1(C)NC(=O)N(c2ccc([N+](=O)[O-])c(C(F)(F)F)c2)C1=O : reported normalized growth = ?
1.02

Please report the recorded normalized growth for OC(Cn1cncn1)(Cn1cncn1)c1ccc(F)cc1F .
0.972

Query (compound): C=C1C(=O)OC2CC1C(OC(C)=O)C/C(C)=C/CC/C(C)=C/CC[C@]2(C)O (stereo not given in full) ; field requested: normalized growth
0.964
